- system_tested: recombinant soluble homotrimeric HA of A/chicken/Vietnam/NCVD-016/08 (H5N1) (Influenza A virus A/chicken/Vietnam/NCVD-016/2008(H5N1))
- assay_info: HA microarray, BCC supernatant
- setup_conditions: remark: other sources report otherwise
Give Trimeric HA Binding: RLU for every item shown.
All answers are understood in RLU, so give the number only.

Per the record, TCN-539 (5056_A08) (antibody, V domains shown) VH: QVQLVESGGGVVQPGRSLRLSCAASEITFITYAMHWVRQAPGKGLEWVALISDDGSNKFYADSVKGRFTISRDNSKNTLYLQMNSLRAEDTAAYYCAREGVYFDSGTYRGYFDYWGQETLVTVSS VL: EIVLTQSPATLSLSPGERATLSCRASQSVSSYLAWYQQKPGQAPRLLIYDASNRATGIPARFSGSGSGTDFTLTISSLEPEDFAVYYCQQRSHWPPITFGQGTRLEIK has Trimeric HA Binding: RLU of 100

Per the record, TCN-563 (5237_B21) (antibody, V domains shown) VH: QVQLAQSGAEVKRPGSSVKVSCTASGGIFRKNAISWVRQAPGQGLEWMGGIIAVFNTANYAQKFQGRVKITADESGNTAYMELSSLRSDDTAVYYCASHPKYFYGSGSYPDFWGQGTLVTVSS VL: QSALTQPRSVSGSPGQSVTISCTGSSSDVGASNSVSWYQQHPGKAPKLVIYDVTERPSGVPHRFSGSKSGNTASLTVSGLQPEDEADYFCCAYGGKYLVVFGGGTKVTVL has Trimeric HA Binding: RLU of 41000

Per the record, TCN-554 (5277_M05) (antibody, V domains shown) VH: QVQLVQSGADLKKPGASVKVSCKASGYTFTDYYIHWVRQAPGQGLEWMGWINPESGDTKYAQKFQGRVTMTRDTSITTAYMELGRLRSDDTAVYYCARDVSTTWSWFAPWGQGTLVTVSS VL: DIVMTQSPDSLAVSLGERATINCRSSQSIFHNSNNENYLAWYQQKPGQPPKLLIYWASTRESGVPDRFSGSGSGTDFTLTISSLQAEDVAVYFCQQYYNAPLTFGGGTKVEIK has Trimeric HA Binding: RLU of 250
